# System: SF-268 CNS
# protocol_notes: NCI tumour cell line growth inhibition, 48 h
# TGI per entry
reported_metric: TGI

> print(dat)
                                    molecule  target.under.test   reading
 1   O=c1[nH]c2nc3ccccc3c(=O)n2/c1=C/c1cccs1         SF-268 CNS  > 100 µM
 2                   S=C1NCCN1C(=S)Nc1ccccc1         SF-268 CNS  > 100 µM
 3      CN1CCc2c(sc3[nH]c(=S)[nH]c(=S)c23)C1         SF-268 CNS  > 100 µM
 4  O=C(N[C@@H](Cc1coc2ccccc12)B(O)O)[C@@H]1C[C@H]2CC[C@@H]1O2         SF-268 CNS  > 100 µM
 5  COc1ccc(-c2nn(-c3cccc(Cl)c3)cc2-c2nc(N)[nH]c(=O)c2C#N)cc1         SF-268 CNS   35.4 µM
 6  CCOC(=O)c1sc2nc(SC)nc(Nc3ccc4c(c3)OCCO4)c2c1N         SF-268 CNS   20.4 µM
 7  C/C=C\C(CC(=O)NCC(=O)c1c[nH]c2ccccc12)CC(=O)OC (configuration not stated)         SF-268 CNS  > 100 µM
 8  Cc1ccc(S(=O)(=O)C2=C(C(C)C)N=NC2(C)C)cc1         SF-268 CNS  > 100 µM
 9  CC1(C)N=C(N)N=C(N)N1c1cccc(OCCOc2cccc([N+](=O)[O-])c2)c1         SF-268 CNS  > 100 µM
10               CC(=O)Nc1c(C(=N)C#N)ncn1CCO         SF-268 CNS  > 100 µM
11  COc1ccc(C2c3cc4c(cc3OC(N3CCOCC3)C2C)OCO4)cc1 (configuration not stated)         SF-268 CNS  > 100 µM
12  CCCCCCCCCCCCCCCCCCC1=C(O)C(=O)C=C(OC)C1=O         SF-268 CNS  > 100 µM
13  COc1ccc(-c2cc(Nc3ccnc(N4CCOCC4)n3)on2)cc1         SF-268 CNS   18.1 µM
14  CC(=O)[CH-]C(=O)c1ccccc1.CC(=O)[CH-]C(=O)c1ccccc1.O=S(=O)([O-])c1cc([O-])c2c([O-])cc(S(=O)(=O)[O-])cc2c1.[Na+].[Ti+4]         SF-268 CNS  > 100 µM
15  Cc1ccc2[c](c1)[Sn]([c]1ccccc1)([c]1ccccc1)[c]1cc(C)ccc1N2C         SF-268 CNS  > 100 µM
16  COc1cc(/C=N\O[Si](C)(C)C(C)(C)C)ccc1O[Si](C)(C)C(C)(C)C         SF-268 CNS  > 100 µM
17  COc1ccc(C2(CC(C)C)CCN(S(=O)(=O)c3ccc(C)cc3)C2)cc1OC (configuration not stated)         SF-268 CNS   95.4 µM
18  CSc1ccc2c(cc1=O)[C@@H](NC(=O)c1cc(O)c(O)c(O)c1)CCc1cc(O)c(O)c(O)c1-2         SF-268 CNS  > 100 µM
19  CC(=O)O[C@]12CCCCCC1C1(O)C(O)CCCCC12 (some centres not stated)         SF-268 CNS  > 100 µM
20  O=C1C=C(Nc2ccc(S(=O)(=O)Nc3nccs3)cc2)c2ccccc2C1=O         SF-268 CNS  > 100 µM
21  COc1ccc(-c2cc(-c3ccc(Nc4ccnc5cc(Cl)ccc45)cc3)nc(N3CCOCC3)n2)cc1         SF-268 CNS  > 100 µM
22  CC1=NC(C)(COC(=O)C2(C)NC(C)(CO)CO2)COC1=O (configuration not stated)         SF-268 CNS  > 100 µM

###

# GI50 per entry
# Test system: CAKI-1 renal
# protocol_notes: NCI tumour cell line growth inhibition, 48 h
reported_metric: GI50

> print(dat)
                                    compound  target.under.test      reading
 1  CCOC(=O)C1=C(N)Oc2c(sc3c(C)cccc23)C1c1ccc(F)cc1 (stereo not given)       CAKI-1 renal       413 nM
 2  O=C(N[C@@H](Cc1coc2ccccc12)B(O)O)[C@@H]1C[C@H]2CC[C@@H]1O2       CAKI-1 renal      4470 nM
 3  COc1ccc2c(c1)C(C)Cc1c(ncnc1-n1cnc3ccccc31)N2C (stereo not given)       CAKI-1 renal       373 nM
 4  O=C(NC1CCCCC1)c1ccc(Nc2ncnc3c2cnn3-c2ccccc2)cc1       CAKI-1 renal     14000 nM
 5  Clc1nc(Cl)c2ncn(Cc3ccccc3Cn3cnc4c(Cl)nc(Cl)nc43)c2n1       CAKI-1 renal      2320 nM
 6  NCCCOc1cc(Cl)ccc1NC(=O)c1cc2ccccc2cc1OCCCN       CAKI-1 renal      1600 nM
 7  CN1C(NNC(=O)c2cccnc2)=NS(=O)(=O)c2cc(Cl)ccc21       CAKI-1 renal  > 100000 nM
 8  COc1ccc(-c2ccc(NNC(=O)c3ccc(F)cc3)nn2)cc1OC       CAKI-1 renal     34300 nM
 9  COc1ccc(-c2nn(-c3cccc(Cl)c3)cc2-c2nc(N)[nH]c(=O)c2C#N)cc1       CAKI-1 renal      2520 nM
10                  Oc1ccc(N=Nc2nccs2)c(O)c1       CAKI-1 renal       417 nM

###

# Test system: HS 578T breast
# protocol_notes: NCI tumour cell line growth inhibition, 48 h; in the data active = GI50 below about 0.43 µM; inactive = the rest
Outcome codes: active, inactive

> print(dat)
                                   molecule  target.under.test     class
1  COc1cc(C(=O)O[C@H](C(N)=O)[C@]2(C)CO2)c2cccc(C)c2c1     HS 578T breast    active
2  Cn1cc(S(=O)(=O)N2CCC3=Cc4c(cnn4-c4ccc(F)cc4)C[C@]3(C(=O)c3cc(C(F)(F)F)ccn3)C2)cn1     HS 578T breast  inactive
3  COc1ccc2c(c1)C(C)Cc1c(ncnc1-n1cnc3ccccc31)N2C (stereo not given)     HS 578T breast  inactive
4  Cn1cc(-c2csc(-c3cn(C)c4ccc(F)cc34)n2)c2cnccc21     HS 578T breast  inactive
5  C=C1C(O)C2C(=C(C)C13CC3)C(=O)C(C)(C)C2OC (stereo not given)     HS 578T breast  inactive

###

# System: KM12 colon
# protocol_notes: NCI tumour cell line growth inhibition, 48 h
# TGI per entry

compound	TGI
O=C1c2ccccc2C(=O)c2c(NCCN=Cc3ccccc3O)cccc21	8.37 µM
CN1CCN(/C(N)=C(\C#N)C(=O)Nc2ccc(Cl)cc2)CC1	> 100 µM
O=C1CC2CCN(C(=O)c3ccccc3)CC2CCN1 (stereo not given)	> 100 µM
CC(NC(=O)c1c(O)[nH]c(=S)[nH]c1=O)c1ccc([N+](=O)[O-])cc1 (stereo not given)	> 100 µM
CC(=O)OCC1OC(n2c(C)c(N=Nc3ccc(Cl)cc3)c(C)c(C#N)c2=S)C(OC(C)=O)C(OC(C)=O)C1OC(C)=O (stereo not given)	> 100 µM
Cn1cc(S(=O)(=O)N2CCC3=Cc4c(cnn4-c4ccc(F)cc4)C[C@]3(C(=O)c3cc(C(F)(F)F)ccn3)C2)cn1	> 100 µM
NC(=S)N/N=C1\CCCC\C1=C/c1ccccc1	> 100 µM
C1COCCSC2=C(SCCO1)SC(=C1SC3=C(SCCOCCOCCS3)S1)S2	> 100 µM
O=C1C(Br)=CC2(C=C1Br)CCNC1=C2C(=O)c2ncccc2C1=O	3.53 µM
NC(=O)c1cn(Cc2ccccc2)c(=O)n1Cc1ccccc1	> 100 µM
c1ccc2c(c1)c1ccccc1c1ccccc21	> 100 µM
Cc1ccc(N2C(=O)N(c3ccc(C)cc3)C3(SC=NN3C)C2=O)cc1 (stereo not given)	> 100 µM
COc1ccc(/C=N/N=C(\N)NO)c(OC)c1C	> 100 µM
O=C1C=C(Nc2ccc(S(=O)(=O)Nc3nccs3)cc2)c2ccccc2C1=O	37.7 µM
CC12CCC(=O)N1c1cccnc1N2 (stereo not given)	> 100 µM
Cc1ccc(NC(=O)C(=O)C2C(=O)NC(=O)NC2=O)cc1C	> 100 µM
O=C1C2[C@@H](C(=O)N1c1ccc(Br)cc1)C13C(=CC2([N+](=O)[O-])[C@@H]2C(=O)N(c4ccc(Br)cc4)C(=O)[C@@H]21)c1ccccc1N3c1ccccc1 (stereo not given in full)	> 100 µM
C=CC1(CC[C@]2(c3ccc(OC)c(OC)c3)C=[N+]([O-])O[C@H](O[C@@H]3CCCC[C@H]3C(C)(C)c3ccccc3)C2)OCC(C)(C)CO1	41.4 µM
CN(C)CCNC(=O)c1cccc2[nH]c(-c3ccccn3)nc12	> 100 µM
CC(=O)NC1C(Sc2ncn(C3OC(CO)C(O)C(O)C3NC(C)=O)n2)OC(CO)C(O)C1O (stereo not given)	> 100 µM
